target: KCC2 (Homo sapiens); assay: KCC2 thallium transport FLIPR-based assay (Tl+ influx in HEK293 cells expressing KCC2); conditions: 90 min compound incubation at RT, thallium flux at 120 s used to determine EC50
pEC50: −log10 of the molar value.
MEASUREMENT_KIND: pEC50

{"COMPOUND": "CC(C)N1Cc2c(Nc3ccc(C4CCCCC4)cc3)nc(N(C)CC3CCCO3)nc2C1=O (stereo not shown)", "MEASUREMENT_KIND": "pEC50", "OBSERVED_RESULT": 5.20}

A. CC(C)N1Cc2c(Nc3ccc(C4CCCCC4)cc3)nc(N3CCOC(C4CC4)C3)nc2C1=O (single isomer, unassigned) [Example 14]
B. C#CCCC1(CCOc2ccc(-c3ccc(Nc4nc(N5CCOC(C6CC6)C5)nc5c4CN(C(C)C)C5=O)cc3)cc2)N=N1 (stereo not shown)
C. CC(C)N1Cc2c(Nc3ccc(C4CCCCC4)cc3)nc(-n3ccnc3)nc2C1=O
Ascending by pEC50, please. Respond with the label ranking, as requested.
C, A, B

----------
target: UniProtKB Q9H2X9; test: KCC2 thallium transport FLIPR-based assay (Tl+ influx in HEK293 cells expressing KCC2); conditions: 90 min compound incubation at RT, thallium flux at 120 s used to determine EC50
MEASUREMENT_KIND: EC50 (µM)

Consider the following illustrative entries.
{"COMPOUND": "CC(C)N1Cc2c(Nc3ccc(-c4cccs4)cc3)nc(N3CCOCC3)nc2C1=O", "READING_UNIT": "µM", "OBSERVED_RESULT": 4.74}
{"COMPOUND": "CC(C)N1Cc2c(Nc3ccc(C4CCCCC4)cc3)nc(N3CCOCC3CO)nc2C1=O (centres unmarked)", "READING_UNIT": "µM", "OBSERVED_RESULT": 4.89}
{"COMPOUND": "C1=C(c2nc(Nc3ccc(C4CCCCC4)cc3)c3cccnc3n2)CCOC1", "READING_UNIT": "µM", "OBSERVED_RESULT": 5.53}
{"COMPOUND": "CC(C)N1Cc2c(Nc3ccc(C(F)(F)C(F)(F)F)cc3)nc(N3CCOCC3)nc2C1=O", "READING_UNIT": "µM", "OBSERVED_RESULT": 3.88}
{"COMPOUND": "C[C@@H]1CN(c2nc(Nc3ccc(C4CCCCC4)cc3)c3cc(C(=O)O)cnc3n2)CCO1", "READING_UNIT": "µM", "OBSERVED_RESULT": 3.99}

A. CC(C)N1Cc2c(Nc3ccc(C4CCCCC4)cc3)nc(N3CCOC(C4CC4)C3)nc2C1=O (single isomer, unassigned) [Example 15]
B. CC(C)N1Cc2c(Nc3ccc(C4CCCCC4)cc3)nc(N3CCOC4(CCOCC4)C3)nc2C1=O
C. C[C@@H]1CN(c2nc(Nc3ccc(C4CCCCC4)cc3)c3c(n2)C(=O)N(CCCN(C)C)C3)CCO1
Sort by EC50, descending. API: response body holds the labels in the requested order.
B, C, A

----------
Biological target: KCC2 (Homo sapiens, UniProt Q9H2X9)
Construct: expressed in transfected cells; host or cells: HEK293 cells electroporated (Maxcyte STX) with the pcDNA3.1 KCC2 plasmid
Sequence (Q9H2X9 1-1139): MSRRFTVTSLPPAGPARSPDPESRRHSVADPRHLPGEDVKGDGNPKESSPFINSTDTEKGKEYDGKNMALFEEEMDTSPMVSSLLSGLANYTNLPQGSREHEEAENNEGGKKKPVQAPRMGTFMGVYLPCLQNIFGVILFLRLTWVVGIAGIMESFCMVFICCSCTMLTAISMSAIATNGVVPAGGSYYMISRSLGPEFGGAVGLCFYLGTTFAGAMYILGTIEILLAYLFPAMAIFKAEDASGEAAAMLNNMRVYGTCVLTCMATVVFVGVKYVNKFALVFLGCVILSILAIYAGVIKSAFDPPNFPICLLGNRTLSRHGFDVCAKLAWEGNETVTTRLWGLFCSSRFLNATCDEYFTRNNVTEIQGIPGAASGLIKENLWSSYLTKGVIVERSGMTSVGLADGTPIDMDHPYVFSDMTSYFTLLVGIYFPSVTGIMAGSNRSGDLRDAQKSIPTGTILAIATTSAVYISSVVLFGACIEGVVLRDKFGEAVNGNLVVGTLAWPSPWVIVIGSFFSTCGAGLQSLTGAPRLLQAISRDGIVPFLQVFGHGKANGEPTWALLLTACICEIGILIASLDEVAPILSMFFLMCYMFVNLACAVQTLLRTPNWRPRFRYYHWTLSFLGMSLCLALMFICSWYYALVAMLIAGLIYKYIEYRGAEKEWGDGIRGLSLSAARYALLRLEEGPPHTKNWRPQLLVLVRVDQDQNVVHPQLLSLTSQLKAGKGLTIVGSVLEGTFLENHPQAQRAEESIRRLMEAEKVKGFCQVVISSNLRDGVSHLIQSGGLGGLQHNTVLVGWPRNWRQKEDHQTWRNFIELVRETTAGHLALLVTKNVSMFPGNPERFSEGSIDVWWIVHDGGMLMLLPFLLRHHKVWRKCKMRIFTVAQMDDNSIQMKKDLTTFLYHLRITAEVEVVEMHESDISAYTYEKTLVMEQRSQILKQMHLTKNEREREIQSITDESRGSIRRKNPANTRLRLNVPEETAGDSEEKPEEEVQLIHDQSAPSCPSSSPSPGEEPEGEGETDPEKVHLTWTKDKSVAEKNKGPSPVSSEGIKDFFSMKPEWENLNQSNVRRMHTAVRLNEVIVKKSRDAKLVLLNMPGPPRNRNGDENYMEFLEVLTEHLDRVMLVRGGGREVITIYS
Experiment: KCC2 thallium transport FLIPR-based assay (Tl+ influx in HEK293 cells expressing KCC2)
Format: cell-based
Conditions: 90 min compound incubation at RT, thallium flux at 120 s used to determine EC50
pEC50: −log10 of the molar value.
MEASUREMENT_KIND: pEC50

Solved cases (5 shown):
{"MOLECULE": "C#CCCC1(CCOc2ccc(-c3ccc(Nc4nc(N5CCOCC5)nc5c4CN(C(C)C)C5=O)cc3)cc2)N=N1 [Example 70]", "pEC50": 5.74}
{"MOLECULE": "COc1cc(-c2nc(Nc3ccc(C4CCCCC4)cc3)c3c(n2)C(=O)N(C(C)C)C3)ccn1 [Example 43]", "pEC50": 6.13}
{"MOLECULE": "CC(C)c1ccc(Nc2nc(-c3ccncc3)nc3c2CN(C(C)C)C3=O)cc1 [Example 40]", "pEC50": 5.20}
{"MOLECULE": "CC(C)N1Cc2c(Nc3ccc(-c4ccccc4)c(F)c3)nc(C3=CCOCC3)nc2C1=O [Example 82]", "pEC50": 5.64}
{"MOLECULE": "CC(C)N1Cc2c(Nc3ccc(CC(F)(F)F)cc3)nc(N3CCO[C@H](C)C3)nc2C1=O [Example 65]", "pEC50": 5.12}

I. C[C@@H]1CN(c2nc(Nc3ccc(C4CCCCC4)cc3)c3cc(C(N)=O)cnc3n2)CCO1 [Example 104]
II. CC(C)c1ccc(Nc2nc(C3=CCOCC3)nc3c2CN(C(C)C)C3=O)cc1 [Example 50]
III. CCCc1ccc(Nc2nc(N3CCO[C@H](C)C3)nc3c2CN(C(C)C)C3=O)cc1 [Example 60]
IV. CC(C)N1Cc2c(Nc3ccc(Oc4ccc(F)cc4)cc3)nc(N3CCO[C@H](C)C3)nc2C1=O [Example 51]
V. CC(C)N1Cc2c(Nc3ccc(C4CCCCC4)cc3)nc(N3CCCOCC3)nc2C1=O [Example 24]
Order the 5 molecules from highest to lowest pEC50. # respond with the labels, arranged in the requested order
IV, I, V, III, II
